B1: KCNA3 (parent)
chain: YQSGGRIRRPVNVPIDIFSEEIRF

- Variants of: B1
- assayText: protein stability index of a GFP-peptide fusion (GPS, HEK-293T) (PSI 1-6); higher = more stable;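 further: lentivirally expressed fusions sorted by FACS into six bins by GFP to DsRed ratio, PSI derived from sequencing read proportions per bin multiplied by bin number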
- experimentalConditions: c terminus: a fixed tail appended
measurementKind: protein stability index
In your answer, state the number alone without any accompanying words.

Consider the following illustrative entries.
sequencechain=YMSGGRIRRPVNVPIDIFSEEIRF measurementkind="protein stability index" measurednumber=2.04
sequencechain=YQSGVRIRRPVNVPIDIFSEEIRF measurementkind="protein stability index" measurednumber=2.05
sequencechain=YQSGGRIRRPTNVPIDIFSEEIRF measurementkind="protein stability index" measurednumber=1.98

Which protein stability index reading was recorded for the variant `YQSGGRIRRPFNVPIDIFSEEIRF` ?
2.02
